test system: Rattus norvegicus; test: Antihypertensive activity was determined in cannulated spontaneously hypertensive rats(SHR) and maximum decrease of mean arterial blood pressure (MABP) at 10 mg/kg oral dose; format: functional, Artery
Rule: Fulfilled for Decrease in MABP not less than 40%, Not fulfilled for anything less.

Completed entries (count: 6):
CCN1CCN(CC)[C@H]2c3c(C)c4ccccc4n3CC[C@@H]21.Cl.Cl | Not fulfilled
COc1cc2nc(N3CCN(C(=O)c4ccco4)CC3)nc(N)c2cc1OC | Fulfilled
CCN1CCN(C(C)C)C2CCn3c(c(C)c4ccccc43)C21 (stereo not drawn) | Fulfilled
CCCCN1CCN(CC)C2CCn3c(c(C)c4ccccc43)C21.Cl.Cl (stereo not drawn) | Not fulfilled
Cc1c2n(c3ccccc13)CCC1NCCNC21 (stereo not drawn) | Not fulfilled
Cc1c2n(c3ccccc13)CCC1C2NCCN1CCOc1ccccc1 (stereo not drawn) | Not fulfilled

Continue with the next compound.
// query Dear colleague, could you confirm whether Br.CCCN1CCN(CC)C2CCn3c(c(C)c4ccccc43)C21 (stereo not drawn) has Decrease in MABP at or above 40%?
// result Fulfilled

---

system: Rattus norvegicus; assay: Antihypertensive activity was determined in cannulated spontaneously hypertensive rats(SHR) and maximum decrease of mean arterial blood pressure (MABP) at 10 mg/kg oral dose; format: functional, Artery
Endpoint: Decrease in MABP (%)
The figure you give is taken to be in %; do not add the unit.

// query Field request: Decrease in MABP | item: CCN1CCNC2CCn3c(c(C)c4ccccc43)C21 (stereo unspecified)
// result 14

// query Which Decrease in MABP is reported for this compound? CCN1CCN(CC)C2c3c(C)c4cc(Br)ccc4n3CCC21.Cl (stereo unspecified)
// result 15

// query Query (compound): Cc1c2n(c3ccccc13)CCC1C2N(C)CCN1C (stereo unspecified) ; field requested: Decrease in MABP
// result 23

// query Return reported Decrease in MABP; argument: Br.Br.CCN1CCNC2c3c(C)c4ccccc4n3CCC21 (stereo unspecified)
// result 23

// query What Decrease in MABP value was documented for this compound, Br.CCCN1CCN(CCC)C2c3c(C)c4ccccc4n3CCC21 (stereo unspecified) ?
// result 18

// query For Cc1c2n(c3ccccc13)CCC1C2NCCN1C(C)C.Cl.Cl (stereo unspecified) , what is its reported Decrease in MABP?
// result 12

---

tested on: Rattus norvegicus; experiment: Antihypertensive activity was determined in cannulated spontaneously hypertensive rats(SHR) and maximum decrease of mean arterial blood pressure (MABP) at 2.5 mg/kg oral dose; assay type: functional, Artery
Would you please tag the item true when its Decrease in MABP is 20% or above, and false when it is below?

Here's what some known entries look like.
Br.CCCN1CCN(C(C)C)C2CCn3c(c(C)c4ccccc43)C21 (stereo not given) | true
Br.CCCN1CCN(CCC)C2c3c(C)c4ccccc4n3CCC21 (stereo not given) | false
Br.CCCN1CCN(CC)C2CCn3c(c(C)c4ccccc43)C21 (stereo not given) | true

// query Given the entry "O=C(NC1CCN(CCc2c[nH]c3ccccc23)CC1)c1ccccc1" , answer whether its Decrease in MABP meets or surpasses 20%.
// result false

// query Can CCN1CCN(C(C)C)C2CCn3c(c(C)c4ccccc43)C21 (stereo not given) be said to have Decrease in MABP at or above 20%?
// result true

Where do the numbers come from? From ChEMBL document CHEMBL1123678.
